Field: pEC50. Provide a value for each of the molecules that follow.
Tested on: West Nile virus
assay.info: Inhibition of Rluc-FL-WNV replicon in Vero cells
Format: functional, organism-based
In simple prose, pEC50 is minus the logarithm base ten of a concentration in moles per litre.

Req: Answer with reported pEC50 of CCN(CC)C(=O)c1ccc2nc3ccccc3c(NC3CCN(Cc4ccccc4)CC3)c2c1
Resp: 4.70

Req: Please report the measured pEC50 for CCN(CC)C(=O)c1ccc2nc3ccccc3c(NCCc3c[nH]c4ccccc34)c2c1
Resp: 4.82

Req: Give reported pEC50 value for NC(=O)c1ncn([C@@H]2O[C@H](CO)[C@@H](O)[C@H]2O)n1
Resp: 4.52

Req: Supply recorded pEC50 for CN1CCN(C(=O)c2ccc3nc4ccccc4c(Oc4ccccc4)c3c2)CC1 here.
Resp: 4.70
